Can you tell me EC50 for the items I'm about to list?
# study-target: human mGluR4 transiently over-expressed in HEK-293 cells (Homo sapiens)
# Sequence (Q14833 33-912): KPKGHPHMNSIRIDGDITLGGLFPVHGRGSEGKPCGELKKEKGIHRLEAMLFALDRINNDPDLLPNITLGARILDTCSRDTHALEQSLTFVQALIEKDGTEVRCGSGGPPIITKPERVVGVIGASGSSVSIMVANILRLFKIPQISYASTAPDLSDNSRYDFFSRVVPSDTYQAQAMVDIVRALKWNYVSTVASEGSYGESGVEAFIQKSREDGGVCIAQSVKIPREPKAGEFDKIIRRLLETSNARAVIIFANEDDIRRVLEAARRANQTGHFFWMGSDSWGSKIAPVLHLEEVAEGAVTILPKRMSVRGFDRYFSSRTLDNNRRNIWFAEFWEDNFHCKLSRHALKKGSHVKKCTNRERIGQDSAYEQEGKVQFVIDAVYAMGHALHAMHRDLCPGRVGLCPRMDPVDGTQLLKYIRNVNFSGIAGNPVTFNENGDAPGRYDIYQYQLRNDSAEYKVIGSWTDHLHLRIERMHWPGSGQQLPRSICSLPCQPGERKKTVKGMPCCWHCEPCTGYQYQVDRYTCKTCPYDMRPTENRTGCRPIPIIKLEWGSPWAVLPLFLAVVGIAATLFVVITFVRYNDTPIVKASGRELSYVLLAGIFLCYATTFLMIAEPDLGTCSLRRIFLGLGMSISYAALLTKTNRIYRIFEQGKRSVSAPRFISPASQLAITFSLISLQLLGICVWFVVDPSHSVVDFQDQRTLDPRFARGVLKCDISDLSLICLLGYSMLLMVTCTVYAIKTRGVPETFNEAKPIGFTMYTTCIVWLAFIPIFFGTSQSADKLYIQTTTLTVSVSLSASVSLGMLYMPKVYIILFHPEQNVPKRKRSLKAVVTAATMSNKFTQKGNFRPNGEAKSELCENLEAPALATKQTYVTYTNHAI
# assay-info: Human mGluR4 positive allosteric modulator evaluation using Ca++ functional assay
# measurement-context: HEK-293 cells co-transfected with hmGluR4 and chimeric G protein; EC10 glutamate; intracellular calcium (Fluo4AM); read-out: mean EC50 of agonist/positive allosteric modulator activity on mGluR4
Counter-ions that a name gives are not always drawn.

Worked cases, answers included:
molecule	study-target	EC50
ON=c1cc(-c2cc3ccccc3cn2)oc2ccccc12 (mixture of isomers)	human mGluR4 transiently over-expressed in HEK-293 cells (Homo sapiens)	< 1 µM
ON=c1cc(-c2cc3cccn3cn2)oc2ccc(CCCN3CCOCC3)cc12 [Example 106, hydrochloride]	human mGluR4 transiently over-expressed in HEK-293 cells (Homo sapiens)	< 1 µM

Please state, for each entry, its recorded EC50.
1. ON=c1cc(-c2cc3cccn3cn2)oc2ccc(OCCCOc3ccc(F)c(F)c3)cc12
2. Cl.O=C(NCCN1CCOCC1)c1ccc2oc(-c3cc4cccn4cn3)cc(=NO)c2c1 [Example 115, hydrochloride]
3. ON=c1cc(-c2cc3cccn3cn2)oc2ccc(/C=C\CN3CCOCC3)cc12

1: < 1 µM; 2: < 1 µM; 3: < 1 µM

Please state, for each entry, its recorded EC50.
1. ON=c1cc(-c2cc3ccccc3cn2)oc2ccc(C3CC3)cc12 (mixture of isomers)
2. Cl.ON=c1cc(-c2cc3cccn3cn2)oc2ccc(OCCN3CCCOCC3)cc12 [Example 117, hydrochloride]
3. COc1cccc2oc(-c3cc4cccn4cn3)cc(=NO)c12
4. ON=c1cc(-c2cc3cccn3cn2)oc2cccc(OCCCN3CCOCC3)c12 [Example 157, hydrochloride]
5. Cc1ccc2oc(-c3cc4ccccc4cn3)cc(=NO)c2c1 (mixture of isomers)
6. COn1ccc2cc(-c3cc(=NO)c4ccccc4o3)ncc21
7. CNc1cccc(C#Cc2ccc3c(=NO)cc(-c4cc5ccccc5cn4)oc3c2)c1 (mixture of isomers)
8. ON=c1cc(-c2cc3ccsc3cn2)oc2ccccc12 (mixture of isomers)

1. < 5 µM
2. < 1 µM
3. < 1 µM
4. < 5 µM
5. < 1 µM
6. < 5 µM
7. < 1 µM
8. < 1 µM

Please state, for each entry, its recorded EC50.
1. Cl.ON=c1cc(-c2cc3cccn3cn2)oc2ccc(OCCCN3CCOCC3)cc12 [Example 101, hydrochloride]
2. ON=c1cc(-c2cc3cccn3cn2)oc2ccc(OCCc3ccc(Cl)cc3)cc12
3. ON=c1cc(-c2cc3ccccc3cn2)oc2cc(C#Cc3ccccc3)ccc12 (mixture of isomers)

< 1 µM
< 1 µM
< 1 µM
